B1: HDV Ribozyme (parent)
chain: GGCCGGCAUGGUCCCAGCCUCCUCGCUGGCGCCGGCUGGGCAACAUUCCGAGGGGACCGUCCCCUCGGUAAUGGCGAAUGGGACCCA

- Variants of: B1
- assay: self-cleavage, relative activity (ratio to wild type); higher = more cleavage; co-transcriptional
experimental.endpoint: self-cleavage

| biopolymer.sequence | test.result |
| --- | --- |
| GGCCAGCAUGGUCCCAGCCUCCUCGCUGGCGCCGGCUGGGCAACAUUCCGAGGGGACCGUCACCUCGGUAAUGGCGAAUGGGACCCA | 0 |
| GGCCGGCAUGGUCCCAGCCUACUCGCUGGCGCCGGCUGGGCAACAUUCCGAGGGGACCGUCCCCUCUGUAAUGGCGAAUGGGACCCA | 0.04 |
| GGCCGGCAUGGUCCCAGCCUCCUCGCUGGCGCCCGCUGGGCGACAUUCCGAGGGGACCGUCCCCUCGGUAAUGGCGAAUGGGACCCA | 0.0554 |
| GGUCGGCAUGGUCCCAGCCUCCUCGCUGGCGCCGGCUGGGGAACAUUCCGAGGGGACCGUCCCCUCGGUAAUGGCGAAUGGGACCCA | 0.499 |
| GGCCGGCAUGGUCCCAGCCUCCUGGCUGGCGCCGGCUGGGCAACAUUCCGAGGGGACCGUCCCCGCGGUAAUGGCGAAUGGGACCCA | 0.233 |
| GGCCGGCAUGGUCCCAGCCUCCUCGCUGGCGCCGUCUGGGCAACAUUCCGAGGGGGCCGUCCCCUCGGUAAUGGCGAAUGGGACCCA | 0.393 |
| GGCCGGCAUGGUCCCAGCCUCCUCGCUGGCGCCGGCUGGGCAACAUUCCGAGGGGACCGUCCCCUCGGUCAUGGCGAAUGGCACCCA | 0 |
| GGCCGGCAUGGUCCCAGCCUCCUCGCUGGCGCCGGCUGGGCAAAAUUCCGAGUGGACCGUCCCCUCGGUAAUGGCGAAUGGGACCCA | 0.929 |
| GGCCGGCAUGGUCCCAGCCUCCUCGCUGGCGCCGGCUGGGCAACAUUCCAAGGGGACCGUCCCCUCGGUCAUGGCGAAUGGGACCCA | 0.763 |
| GGCCGGCAUGGUCCCAGCCUCCUCGCUGGCGCCGGCUGGGCAACAUUCCGAGCGGACCGUCCCCUUGGUAAUGGCGAAUGGGACCCA | 0.918 |
| GGCCGGCAUGGUCCCAGCCUCCUCGCUUGCGCCGGUUGGGCAACAUUCCGAGGGGACCGUCCCCUCGGUAAUGGCGAAUGGGACCCA | 0 |
| GUCCGGCUUGGUCCCAGCCUCCUCGCUGGCGCCGGCUGGGCAACAUUCCGAGGGGACCGUCCCCUCGGUAAUGGCGAAUGGGACCCA | 0.134 |
| GGCCGGCAUGGUCCCAGCCUUCUCGCUGGCGCCGGCUGGGGAACAUUCCGAGGGGACCGUCCCCUCGGUAAUGGCGAAUGGGACCCA | 0.432 |
| GGCCGGCAUGGUCCCAGCCUCCUCACUGGCGCCGGCUGGGCAACAUUCCGAGGUGACCGUCCCCUCGGUAAUGGCGAAUGGGACCCA | 0.202 |
| GGCCGGCAUAGUCCCAGCCUCCCCGCUGGCGCCGGCUGGGCAACAUUCCGAGGGGACCGUCCCCUCGGUAAUGGCGAAUGGGACCCA | 0.554 |
| GGCCGGCAUAGUCCCAGCCUCCUCGCUGGCGCCGGCUGGGCAACAUUCCGAGGGGACCGUCCCCUCGGUAAUGGCGAAUGUGACCCA | 0.0468 |
| GGCCGGCAUGGUCCCAGCCUCCUCGCUGGCGCCGGCUGGGCAACAUUCCGAGGGGACUGUCCCCUCGGUAAUAGCGAAUGGGACCCA | 0.7 |
| GGCCGGCAUGGUCCCAGCCGCCUCGCUGGCGCCGGCUGGGUAACAUUCCGAGGGGACCGUCCCCUCGGUAAUGGCGAAUGGGACCCA | 0.287 |
| GGCCGGCAUGGUCCCAGCCUCCUCGCUGGCGCCGGCUGGGCAACAUUCCGAGGGGACCGUCCCCUCGGUAAUGGCGAAUGGGUCCCA | 0.523 |
| GGCCGGCAUGGUCCCAGCCUCCUCGCUGGCGCCGGCUGGGCAAGAUUCCGAGGGGACCGUCCCCUCGGUAAUGGCGAAUGGGAACCA | 0.394 |
| GGCCGGCAUGGUCCCAGCCUCCUCGCUGGCGCCGACUGGCCAACAUUCCGAGGGGACCGUCCCCUCGGUAAUGGCGAAUGGGACCCA | 0.163 |
| GGCCGGCAUGGUCCCAGCUUCCUCGCUGGCGCCGGCUGGGCAACAUUCCGAGGGGACCGUCCCCUCGGUAAUGGCGAAUGGGACCCG | 0.107 |
| GGCCGGCAUGGUCCCAGCCUCCUCGCUGGCGCCGGCUGGGCAACAUUCCGAGGCGAGCGUCCCCUCGGUAAUGGCGAAUGGGACCCA | 1.05 |
| GGCCGGCAUGGUCCCCGCCUCCUCGCUGGCGCCGGCUGGGCAACAUUCCGAGGGCACCGUCCCCUCGGUAAUGGCGAAUGGGACCCA | 1.01 |
| GGCCGGCAUGGUCGCAGCCUCCUCGCUGGCGCCGGCUGGGCAACAUUCCGAGGGGACCGUCCCCUCGGUUAUGGCGAAUGGGACCCA | 0.529 |
| GGCCGGCAUGGUCCCAGCCUCCUCGCUGGCGCCGGCUGGGCAACAUUCCGAGGGGACCCUCCCCUCGGUAAUGGCGAAUGGGAACCA | 0.912 |
| GGCCGGCAUGGUCCCAGCCUCCUCGGUGGCGCCGGCUGGGCAACAUUCCGAAGGGACCGUCCCCUCGGUAAUGGCGAAUGGGACCCA | 0.867 |
| GGCCGGCAUAGUCCCAGCCUCCUCGCUGGCGCCGGCUGGGCUACAUUCCGAGGGGACCGUCCCCUCGGUAAUGGCGAAUGGGACCCA | 0.244 |
| GGCCGGCAUGGUCCCAGCCUCCUCGCUGGCGCCGGCUGGGCAACAUUCCGAGGGGACCCUCCCCUCGGUAAUGGCGAAUGGGACCAA | 0.914 |
| GGCCGGCAUGGUCCCAGCCUCAUCGCUGGCGUCGGCUGGGCAACAUUCCGAGGGGACCGUCCCCUCGGUAAUGGCGAAUGGGACCCA | 0.19 |
| GGCCGGCAUGGUCCCAGCCUCCUCGCUGGCGCCCGCUGGGCAACAUUCCGAGGGGACCGUCCCCUCGAUAAUGGCGAAUGGGACCCA | 0.0692 |
| GGCCGGCAUGGUCCCAGCCUCCUCGCUGGCGCCGGCUGGGCAACAUUCCGAGGGGACCGUCCCCUCGGUUAUGGCGAAUGGGACCGA | 0.872 |
| GGCCGGCAUGGUCCCAGCAUCCUCGCUGGCGCCGGCUGGGCAACAUUCCGAGGGGACCGUCCCCUCGGUAAUCGCGAAUGGGACCCA | 0.058 |
| GGCCGGCAUGGUCCCAGCCUCCUCGCUGGCGCCGGCUGGGCAACAUUCCGAGGGGAACGUCCCCUCGGUAAUGGCGAAUCGGACCCA | 0.166 |
| GGCCGGCAAGGUCCCAGCCUCCUCGCUGGCGCCGGCUGGGCAACAUUCCGGGGGGACCGUCCCCUCGGUAAUGGCGAAUGGGACCCA | 0.59 |
| GGCCGGCAUGGUCCCAGCCUCCUCGCUGGCGCCGGCUGGGCAACAUUCCGAGGGGACCGUUCCCUAGGUAAUGGCGAAUGGGACCCA | 0.722 |
| GGCCGGCAUGGUCCCAGCCUCCUCGCUGGCGCGGGCUGGUCAACAUUCCGAGGGGACCGUCCCCUCGGUAAUGGCGAAUGGGACCCA | 0.233 |
| GGCCGGCAUGGUCCCAGCCUAAUCGCUGGCGCCGGCUGGGCAACAUUCCGAGGGGACCGUCCCCUCGGUAAUGGCGAAUGGGACCCA | 0.0898 |
| GGCCGGCAUGGUCCCAGCCUCCUCGCUGGCGCCGGCUGGGCAACAUUCCGGGGGGACCGUCCCCUCGGUAAUGGCGAAUGGGAGCCA | 0.332 |
| GGCCGGGAUGGUCCCAGCCUCCUCGCUGGCGCCGGCUGGGCAACAUUCCGAGGGGACCGUCCCCUCGGUAAUGGCGAAUGGGACCCG | 0.381 |
| GGCCGACAUGGUCCCAGCCUCCUCGCUGGCGCCGGCUGGGCAACAUUCCGAGGGGACCGUCCCCACGGUAAUGGCGAAUGGGACCCA | 0.54 |
| GGCUGGCAUGGGCCCAGCCUCCUCGCUGGCGCCGGCUGGGCAACAUUCCGAGGGGACCGUCCCCUCGGUAAUGGCGAAUGGGACCCA | 0.465 |
| GGCCGGCAUCGUCCCAGCCUCCUCGCUGGCGCCGGCUGGGCAACAUUCCGAGGGGACCGUCCCCUCGGUAAUGUCGAAUGGGACCCA | 0.166 |
| GGCCGGCAUGGUCCCAGCCUCCUCGCUGUCGCCGGCUGGGCAACAUUCCGAGGGGACCGUCCCCCCGGUAAUGGCGAAUGGGACCCA | 0.173 |
| GGCCGGCAUGGACCCAGCCUCCUCGCUGGCGCCGGCUGGGCAACAUUCCGAGGGGACCGUCCCCUCGGUAAUGGCGGAUGGGACCCA | 0.151 |
| GGCCGGCAUGGUCCCAGCCUCCUCGCUGGCGCCGGCUGGCCAACAUUCCGAGGGGACCGUCCCCUCGGUAAUGGCGAAUGGAACCCA | 0.233 |
